Test system: α-Amylase from the pig pancreas (Sus scrofa)
Construct: from tissue; host or cells: pig pancreas
Sequence (P00690 16-511): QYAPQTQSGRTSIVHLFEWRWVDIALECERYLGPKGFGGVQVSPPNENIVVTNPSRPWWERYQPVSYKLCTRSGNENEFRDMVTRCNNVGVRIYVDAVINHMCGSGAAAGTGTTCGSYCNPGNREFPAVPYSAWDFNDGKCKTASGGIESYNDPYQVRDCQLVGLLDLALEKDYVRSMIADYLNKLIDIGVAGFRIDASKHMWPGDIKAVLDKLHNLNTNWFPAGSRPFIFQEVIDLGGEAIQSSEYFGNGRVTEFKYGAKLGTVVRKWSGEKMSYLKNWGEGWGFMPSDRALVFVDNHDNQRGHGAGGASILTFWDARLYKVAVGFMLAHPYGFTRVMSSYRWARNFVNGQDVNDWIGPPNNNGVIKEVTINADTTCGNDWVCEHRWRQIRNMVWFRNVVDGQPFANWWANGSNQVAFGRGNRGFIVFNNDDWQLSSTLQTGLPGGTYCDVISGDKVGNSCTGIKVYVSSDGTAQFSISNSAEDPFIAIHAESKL
Assay comment: Amylase test (inhibition of α-amylase, soluble starch according to Zulkowski, dinitrosalicylic acid)
Assay type: biochemical
Measurement context: 1 AIU = amount inhibiting two amylase units to 50%; 37° C., pH 6.9
Method: The specific activities are 4×10^4 α-amylase inhibitor units (AIU) per mg and 1×10^4 saccharase inhibitor unit (SIU) per mg respectively for W-46 H, and 1×10^4 AIU per mg and 3×10^4 SIU per mg respectively for the inhibitor W-46 P. The activities were determined in the following tests: An amylase inhibitor unit (AIU) is defined as the amount of inhibitor which is capable of inhibiting two amylase units (AU) to 50% under the test conditions. […]
Provide the recorded specific activity, α-amylase inhibitor units (AIU) per mg for the entries that follow.

Below, each entry is followed by its recorded specific activity, α-amylase inhibitor units (AIU) per mg result.
- Molecule: "CC1OC(OC2C(CO)OC(O)C(O)C2O)C(O)C(O)C1NC1C(O)C(O)C(OC2OC(CO)C(OC3OC(C)C(NC4C(O)C(O)C(O)C5(CO)OC45)C(O)C3O)C(O)C2O)C2(CO)OC12 (stereo not shown) [W-46 H]"
  Result: "4×10^4 AIU/mg"
- Molecule: "CC1OC(OC2C(CO)OC(O)C(O)C2O)C(O)C(O)C1NC1C(O)C(O)C(OC2OC(CO)C(OC3OC(C)C(NC4C(O)C(O)C(O)C5(CO)OC45)C(O)C3O)C(O)C2O)C2(CO)OC12 (stereo not shown) [W-46 H glucuronate]"
  Result: "3.6×10^4 AIU/mg"
- Molecule: "CC1OC(OC2C(CO)OC(O)C(O)C2O)C(O)C(O)C1NC1C(O)C(O)C(OC2OC(CO)C(OC3OC(C)C(NC4C(O)C(O)C(O)C5(CO)OC45)C(O)C3O)C(O)C2O)C2(CO)OC12 (stereo not shown) [W-46 H chloride]"
  Result: "3.9×10^4 AIU/mg"

Switching to the query record.
Incoming: May I ask what specific activity, α-amylase inhibitor units (AIU) per mg has been recorded for CC1OC(O)C(O)C(O)C1NC1C(O)C(O)C(OC2OC(CO)C(OC3OC(C)C(NC4C(O)C(O)C(O)C5(CO)OC45)C(O)C3O)C(O)C2O)C2(CO)OC12 (stereo not shown) [W-46 P] ?
Outgoing: 1×10^4 AIU/mg

---

Test system: saccharase (disaccharidases from the small intestine mucosa) (Homo sapiens, UniProt P14410)
Construct: from tissue
Sequence (P14410 whole entry): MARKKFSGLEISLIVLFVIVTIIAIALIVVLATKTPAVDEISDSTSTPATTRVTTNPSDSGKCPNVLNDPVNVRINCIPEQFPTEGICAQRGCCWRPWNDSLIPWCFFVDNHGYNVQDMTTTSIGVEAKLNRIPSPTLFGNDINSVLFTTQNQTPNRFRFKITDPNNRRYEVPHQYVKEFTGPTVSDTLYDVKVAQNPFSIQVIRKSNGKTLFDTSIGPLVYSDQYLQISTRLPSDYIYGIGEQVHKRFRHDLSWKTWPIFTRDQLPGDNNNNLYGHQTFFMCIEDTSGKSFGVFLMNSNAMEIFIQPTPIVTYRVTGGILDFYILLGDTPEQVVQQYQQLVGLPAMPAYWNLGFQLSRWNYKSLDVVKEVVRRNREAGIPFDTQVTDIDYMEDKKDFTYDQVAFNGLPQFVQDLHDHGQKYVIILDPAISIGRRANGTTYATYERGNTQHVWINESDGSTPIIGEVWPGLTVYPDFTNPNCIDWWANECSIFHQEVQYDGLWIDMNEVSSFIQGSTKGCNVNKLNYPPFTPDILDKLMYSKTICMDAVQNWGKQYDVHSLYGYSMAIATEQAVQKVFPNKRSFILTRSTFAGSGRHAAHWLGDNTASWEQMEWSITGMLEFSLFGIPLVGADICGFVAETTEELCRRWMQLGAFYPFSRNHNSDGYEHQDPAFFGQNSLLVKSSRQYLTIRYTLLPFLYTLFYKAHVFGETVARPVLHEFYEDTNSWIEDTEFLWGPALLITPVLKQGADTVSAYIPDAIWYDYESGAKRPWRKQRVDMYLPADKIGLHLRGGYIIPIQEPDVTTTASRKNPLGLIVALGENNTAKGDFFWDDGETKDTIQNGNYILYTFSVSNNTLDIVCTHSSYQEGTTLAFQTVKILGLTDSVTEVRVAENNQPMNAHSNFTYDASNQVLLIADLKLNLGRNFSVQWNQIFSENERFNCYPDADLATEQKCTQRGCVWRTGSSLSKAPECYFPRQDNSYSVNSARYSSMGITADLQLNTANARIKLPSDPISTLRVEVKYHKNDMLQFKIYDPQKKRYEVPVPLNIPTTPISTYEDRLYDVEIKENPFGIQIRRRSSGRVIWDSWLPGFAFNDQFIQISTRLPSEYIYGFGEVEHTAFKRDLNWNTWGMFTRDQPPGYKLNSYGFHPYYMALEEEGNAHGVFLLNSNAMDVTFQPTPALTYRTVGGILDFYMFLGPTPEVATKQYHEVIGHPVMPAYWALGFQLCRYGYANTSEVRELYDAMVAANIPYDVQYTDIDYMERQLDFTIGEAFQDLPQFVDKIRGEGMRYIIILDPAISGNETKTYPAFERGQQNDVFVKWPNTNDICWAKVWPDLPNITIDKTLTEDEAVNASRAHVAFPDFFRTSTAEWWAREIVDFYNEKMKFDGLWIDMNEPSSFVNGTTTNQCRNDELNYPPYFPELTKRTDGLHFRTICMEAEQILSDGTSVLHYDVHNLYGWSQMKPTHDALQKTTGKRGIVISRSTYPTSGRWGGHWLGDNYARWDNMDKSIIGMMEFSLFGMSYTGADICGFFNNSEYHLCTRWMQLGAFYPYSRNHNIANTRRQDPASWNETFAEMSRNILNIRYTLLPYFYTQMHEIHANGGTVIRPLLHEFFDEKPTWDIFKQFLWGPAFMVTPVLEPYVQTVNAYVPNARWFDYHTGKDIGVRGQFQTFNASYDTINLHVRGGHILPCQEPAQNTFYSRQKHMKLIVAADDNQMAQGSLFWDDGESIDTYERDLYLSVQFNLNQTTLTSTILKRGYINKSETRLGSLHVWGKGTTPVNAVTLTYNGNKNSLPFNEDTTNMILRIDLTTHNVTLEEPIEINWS
Assay comment: Saccharase test (inhibition of saccharase, hexokinase/glucose-6-phosphate dehydrogenase method)
Type: biochemical
Measurement context: 1 SIU = amount inhibiting two saccharase units to 50%
Where a name gives a salt, the structure may show the parent alone.
Readout name: specific activity, saccharase inhibitor units (SIU) per mg

Below, each entry is followed by its recorded specific activity, saccharase inhibitor units (SIU) per mg result.
- Molecule: "CC1OC(OC2C(CO)OC(O)C(O)C2O)C(O)C(O)C1NC1C(O)C(O)C(OC2OC(CO)C(OC3OC(C)C(NC4C(O)C(O)C(O)C5(CO)OC45)C(O)C3O)C(O)C2O)C2(CO)OC12 (centres unmarked) [W-46 H chloride]"
  Result: "1×10^4 SIU/mg"
- Molecule: "CC1OC(O)C(O)C(O)C1NC1C(O)C(O)C(OC2OC(CO)C(OC3OC(C)C(NC4C(O)C(O)C(O)C5(CO)OC45)C(O)C3O)C(O)C2O)C2(CO)OC12 (centres unmarked) [W-46 P]"
  Result: "3×10^4 SIU/mg"

For every listed record, write down its specific activity, saccharase inhibitor units (SIU) per mg.
1. CC1OC(OC2C(CO)OC(O)C(O)C2O)C(O)C(O)C1NC1C(O)C(O)C(OC2OC(CO)C(OC3OC(C)C(NC4C(O)C(O)C(O)C5(CO)OC45)C(O)C3O)C(O)C2O)C2(CO)OC12 (centres unmarked) [W-46 H]
2. CC1OC(OC2C(CO)OC(O)C(O)C2O)C(O)C(O)C1NC1C(O)C(O)C(OC2OC(CO)C(OC3OC(C)C(NC4C(O)C(O)C(O)C5(CO)OC45)C(O)C3O)C(O)C2O)C2(CO)OC12 (centres unmarked) [W-46 H glucuronate]
3. CC1OC(OC2C(CO)OC(O)C(O)C2O)C(O)C(O)C1NC1C(O)C(O)C(OC2OC(CO)C(OC3OC(C)C(NC4C(O)C(O)C(O)C5(CO)OC45)C(O)C3O)C(O)C2O)C2(CO)OC12 (centres unmarked) [W-46 H sulfate]

Outgoing:
1. 1×10^4 SIU/mg
2. 9×10^3 SIU/mg
3. 9.6×10^3 SIU/mg
